- System: GH3-TRE-Luc cell line
- applied conditions: read-out: AC50 (uM) modified / 1000; Tox21_110001=Tox21_201423; viability, 1 nM T3 present, 24 h
quantity measured: CC50 (µM)
The figure you give is taken to be in µM; do not add the unit.

Ask: For the compound CC(=O)OC/C=C(C)/C=C/C=C(C)/C=C/C1=C(C)CCCC1(C)C [Retinol acetate] , what CC50 is on record?
Reply: 65.7

* * *

- assay explanation: in vitro
- applied conditions: rat, gh3-tre-luc cells, AC50 (uM) modified / 1000, Tox21_110001=Tox21_303172; viability, 1 nM T3 present, 24 h
quantity measured: CC50 at 24 h

Ask: For the compound C=C(C)C#N [Methacrylonitrile] , what CC50 at 24 h is on record?
Reply: > 90 µM
